Target: Kappa-type opioid receptor (Homo sapiens, UniProt P41145)
Sequence (P41145 whole entry): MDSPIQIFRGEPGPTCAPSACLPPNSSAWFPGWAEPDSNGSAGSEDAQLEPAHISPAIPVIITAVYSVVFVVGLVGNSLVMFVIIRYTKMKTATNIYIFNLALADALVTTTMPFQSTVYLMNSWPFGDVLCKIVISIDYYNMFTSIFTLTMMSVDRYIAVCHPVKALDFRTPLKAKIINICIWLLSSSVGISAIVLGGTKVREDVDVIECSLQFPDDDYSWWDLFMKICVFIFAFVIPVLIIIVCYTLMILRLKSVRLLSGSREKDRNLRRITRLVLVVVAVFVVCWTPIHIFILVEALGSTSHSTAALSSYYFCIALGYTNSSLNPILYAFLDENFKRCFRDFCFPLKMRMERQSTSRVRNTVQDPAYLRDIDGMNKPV
Result type: IC50 (µM)

Smiles | System name | IC50 / µM
Cc1cc(N)c2cc(NC(=O)c3ccccc3COc3ccc(CNCCCCCCCCCCN)cc3)ccc2n1 | Kappa-type opioid receptor (Homo sapiens, UniProt P41145) | 9.1

I = CCCCCCCNCc1ccc(OCc2ccccc2C(=O)Nc2ccc3nc(C)cc(N)c3c2)cc1
II = Cc1cc(N)c2cc(NC(=O)c3ccccc3COc3ccc(CNCCCCNCc4ccc(OCc5ccccc5C(=O)Nc5ccc6nc(C)cc(N)c6c5)cc4)cc3)ccc2n1
input: For the pair I and II , which member has the lower IC50 number? Identify your selection by its label.
output: II
(II: 1.09 µM, I: 1.85 µM)

* * *

Target: Delta-type opioid receptor (Homo sapiens)
Assay: Displacement of [3H]-naltrindole from human delta opioid receptor expressed in human HEK293 cells after 2 hrs by scintillation counting
Format: cell-based
Calls of active or inactive are those of the source. The rule behind the calls is not given here.
Result type: Activity

A selection of reference data follows.
Smiles | Activity
CCCCCCCCCCNCc1ccc(OCc2ccccc2C(=O)Nc2ccc3nc(C)cc(N)c3c2)cc1 | inactive
CCCNCc1ccc(OCc2ccccc2C(=O)Nc2ccc3nc(C)cc(N)c3c2)cc1 | inactive
CCCCCCCNCc1ccc(OCc2ccccc2C(=O)Nc2ccc3nc(C)cc(N)c3c2)cc1 | inactive
Cc1cc(N)c2cc(NC(=O)c3ccccc3COc3ccc(/C=N/CCCC/N=C/c4ccc(OCc5ccccc5C(=O)Nc5ccc6nc(C)cc(N)c6c5)cc4)cc3)ccc2n1 | inactive
CCCCCCNCc1ccc(OCc2ccccc2C(=O)Nc2ccc3nc(C)cc(N)c3c2)cc1 | inactive
CCCCC/N=C/c1ccc(OCc2ccccc2C(=O)Nc2ccc3nc(C)cc(N)c3c2)cc1 | inactive

Cc1cc(N)c2cc(NC(=O)c3ccccc3COc3ccc(/C=N/CCC/N=C/c4ccc(OCc5ccccc5C(=O)Nc5ccc6nc(C)cc(N)c6c5)cc4)cc3)ccc2n1 has a reported Activity of inactive

# Activity (molecule: Cc1cc(N)c2cc(NC(=O)c3ccccc3COc3ccc(CNCCCCCN)cc3)ccc2n1 ) is inactive

* * *

Organism: Homo sapiens
Assay: Selectivity ratio of IC50 for human mu opioid receptor to IC50 for human NOP receptor
Result type: Ratio IC50

Smiles | Experimental result
Cc1cc(N)c2cc(NC(=O)c3ccccc3COc3ccc(CNCCCCCCNCc4ccc(OCc5ccccc5C(=O)Nc5ccc6nc(C)cc(N)c6c5)cc4)cc3)ccc2n1 | 31
Cc1cc(N)c2cc(NC(=O)c3ccccc3COc3ccc(CNCCCCCCCCCCNCc4ccc(OCc5ccccc5C(=O)Nc5ccc6nc(C)cc(N)c6c5)cc4)cc3)ccc2n1 | 45
Cc1cc(N)c2cc(NC(=O)c3ccccc3COc3ccc(CNCCCCCCCN)cc3)ccc2n1 | 57

A = Cc1cc(N)c2cc(NC(=O)c3ccccc3COc3ccc(CNCCCCCCCCN)cc3)ccc2n1
B = Cc1cc(N)c2cc(NC(=O)c3ccccc3COc3ccc(CNCCCCN)cc3)ccc2n1
C = Cc1cc(N)c2cc(NC(=O)c3ccccc3COc3ccc(CNCCCCNCc4ccc(OCc5ccccc5C(=O)Nc5ccc6nc(C)cc(N)c6c5)cc4)cc3)ccc2n1
input: // smallest Ratio IC50 at index 0, largest at the end Please write the labels in the order that was asked for.
output: A, B, C

I = CCCCCNCc1ccc(OCc2ccccc2C(=O)Nc2ccc3nc(C)cc(N)c3c2)cc1
II = CCCCNCc1ccc(OCc2ccccc2C(=O)Nc2ccc3nc(C)cc(N)c3c2)cc1
input: // max by Ratio IC50 over [ I , II ] # respond with the chosen item's label
output: I

* * *

Target: Mu-type opioid receptor (Homo sapiens)
Sequence (P35372 whole entry): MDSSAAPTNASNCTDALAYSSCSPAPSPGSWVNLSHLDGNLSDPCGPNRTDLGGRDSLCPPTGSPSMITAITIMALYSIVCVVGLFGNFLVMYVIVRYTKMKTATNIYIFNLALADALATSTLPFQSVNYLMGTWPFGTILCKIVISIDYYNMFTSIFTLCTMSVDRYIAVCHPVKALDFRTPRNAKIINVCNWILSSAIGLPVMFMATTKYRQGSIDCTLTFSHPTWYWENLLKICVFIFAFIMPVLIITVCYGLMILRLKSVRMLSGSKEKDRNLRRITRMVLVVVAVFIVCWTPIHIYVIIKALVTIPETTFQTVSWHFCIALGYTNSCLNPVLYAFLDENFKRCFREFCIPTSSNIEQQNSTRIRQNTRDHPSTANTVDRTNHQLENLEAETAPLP
Test: Displacement of [3H]-naltrindole from human mu opioid receptor expressed in CHO cells after 2 hrs by scintillation counting
pIC50: −log10 of the molar value.
Result type: pIC50

Before answering, review these 3 worked examples.
Smiles | pIC50
Cc1cc(N)c2cc(NC(=O)c3ccccc3COc3ccc(CNCCCCCCCCNCc4ccc(OCc5ccccc5C(=O)Nc5ccc6nc(C)cc(N)c6c5)cc4)cc3)ccc2n1 | 5.72
Cc1cc(N)c2cc(NC(=O)c3ccccc3COc3ccc(CNCCCCCCCN)cc3)ccc2n1 | 5.00
Cc1cc(N)c2cc(NC(=O)c3ccccc3COc3ccc(CNCCCCCCN)cc3)ccc2n1 | 5.22

1 = Cc1cc(N)c2cc(NC(=O)c3ccccc3COc3ccc(CNCCCCCCCCCNCc4ccc(OCc5ccccc5C(=O)Nc5ccc6nc(C)cc(N)c6c5)cc4)cc3)ccc2n1
2 = Cc1cc(N)c2cc(NC(=O)c3ccccc3COc3ccc(CNCCCCCCCCCN)cc3)ccc2n1
input: Please indicate which has the smaller reported pIC50: 1 , or 2 . Please indicate the selected item by its label.
output: 2
(2: 5.15, 1: 5.94)

* * *

The molecules below have reported IC50 for Nociceptin receptor (Homo sapiens).
Result type: IC50 (nM)

Smiles | System name | Experimental result
CCCCC/N=C/c1ccc(OCc2ccccc2C(=O)Nc2ccc3nc(C)cc(N)c3c2)cc1 | Nociceptin receptor (Homo sapiens) | 186
Cc1cc(N)c2cc(NC(=O)c3ccccc3COc3ccc(CNCCCNCc4ccc(OCc5ccccc5C(=O)Nc5ccc6nc(C)cc(N)c6c5)cc4)cc3)ccc2n1 | Nociceptin receptor (Homo sapiens) | 76.5
Cc1cc(N)c2cc(NC(=O)c3ccccc3COc3ccc(CNCCCCN)cc3)ccc2n1 | Nociceptin receptor (Homo sapiens) | 800
CCCCCNCc1ccc(OCc2ccccc2C(=O)Nc2ccc3nc(C)cc(N)c3c2)cc1 | Nociceptin receptor (Homo sapiens) | 732
Cc1cc(N)c2cc(NC(=O)c3ccccc3COc3ccc(CNCCCCCCCCCN)cc3)ccc2n1 | Nociceptin receptor (Homo sapiens) | 212
CCCCCCCCC/N=C/c1ccc(OCc2ccccc2C(=O)Nc2ccc3nc(C)cc(N)c3c2)cc1 | Nociceptin receptor (Homo sapiens) | 154
CCCCCCCNCc1ccc(OCc2ccccc2C(=O)Nc2ccc3nc(C)cc(N)c3c2)cc1 | Nociceptin receptor (Homo sapiens) | 668

a = CCc1ccc(OCc2ccccc2C(=O)Nc2ccc3nc(C)cc(N)c3c2)cc1
b = CCCCCCC/N=C/c1ccc(OCc2ccccc2C(=O)Nc2ccc3nc(C)cc(N)c3c2)cc1
input: Lowest IC50? choose a or b Label of pick, please.
output: a
(a: 30 nM, b: 142 nM)

* * *

Target: Mu-type opioid receptor (Homo sapiens)
Assay: Displacement of [3H]-naltrindole from human mu opioid receptor expressed in CHO cells after 2 hrs by scintillation counting
pIC50: −log10 of the molar value.
Result type: pIC50

Smiles | Experimental result
Cc1cc(N)c2cc(NC(=O)c3ccccc3COc3ccc(CNCCCN)cc3)ccc2n1 | 5.85
Cc1cc(N)c2cc(NC(=O)c3ccccc3COc3ccc(CNCCCCCCCCCCN)cc3)ccc2n1 | 5.85

I = Cc1cc(N)c2cc(NC(=O)c3ccccc3COc3ccc(CNCCCCNCc4ccc(OCc5ccccc5C(=O)Nc5ccc6nc(C)cc(N)c6c5)cc4)cc3)ccc2n1
II = Cc1cc(N)c2cc(NC(=O)c3ccccc3COc3ccc(CNCCCCCNCc4ccc(OCc5ccccc5C(=O)Nc5ccc6nc(C)cc(N)c6c5)cc4)cc3)ccc2n1
input: Lab log: flag the item ( I or II ) with the smaller pIC50 figure. // respond with label for picked entry
output: II
(II: 5.60, I: 5.80)

* * *

Organism: Homo sapiens
Assay: Selectivity ratio of IC50 for human mu opioid receptor to IC50 for human NOP receptor
Result type: Ratio IC50

Consider the worked cases shown below.
Smiles | Result type | Experimental result
Cc1cc(N)c2cc(NC(=O)c3ccccc3COc3ccc(CNCCCCCCCCCNCc4ccc(OCc5ccccc5C(=O)Nc5ccc6nc(C)cc(N)c6c5)cc4)cc3)ccc2n1 | Ratio IC50 | 40
Cc1cc(N)c2cc(NC(=O)c3ccccc3COc3ccc(CNCCCCCCN)cc3)ccc2n1 | Ratio IC50 | 7.4

A = Cc1cc(N)c2cc(NC(=O)c3ccccc3COc3ccc(CNCCCNCc4ccc(OCc5ccccc5C(=O)Nc5ccc6nc(C)cc(N)c6c5)cc4)cc3)ccc2n1
B = CCc1ccc(OCc2ccccc2C(=O)Nc2ccc3nc(C)cc(N)c3c2)cc1
C = CCCCCCCCCCNCc1ccc(OCc2ccccc2C(=O)Nc2ccc3nc(C)cc(N)c3c2)cc1
input: Rank order required: Ratio IC50, descending. Sort the labels as requested; that list is your answer.
output: B, A, C
(B: 50, A: 15, C: 9.6)

I = Cc1cc(N)c2cc(NC(=O)c3ccccc3COc3ccc(CNCCCN)cc3)ccc2n1
II = Cc1cc(N)c2cc(NC(=O)c3ccccc3COc3ccc(CNCCCCCN)cc3)ccc2n1
input: Sorting ascending by Ratio IC50, which comes first: I or II ? Label of pick, please.
output: I
(I: 12, II: 41)

* * *

pIC50: −log10 of the molar value.
The following compounds have recorded pIC50 on UniProt:P41145.
Result type: pIC50

As a guide, the following entries are already answered.
Smiles | System name | pIC50
CCCCCNCc1ccc(OCc2ccccc2C(=O)Nc2ccc3nc(C)cc(N)c3c2)cc1 | UniProt:P41145 | 5.44
Cc1cc(N)c2cc(NC(=O)c3ccccc3COc3ccc(CNCCCCCCCCCCNCc4ccc(OCc5ccccc5C(=O)Nc5ccc6nc(C)cc(N)c6c5)cc4)cc3)ccc2n1 | UniProt:P41145 | 6.05
Cc1cc(N)c2cc(NC(=O)c3ccccc3COc3ccc(CNCCCCCCCNCc4ccc(OCc5ccccc5C(=O)Nc5ccc6nc(C)cc(N)c6c5)cc4)cc3)ccc2n1 | UniProt:P41145 | 5.99

A = Cc1cc(N)c2cc(NC(=O)c3ccccc3COc3ccc(CNCCCCCCNCc4ccc(OCc5ccccc5C(=O)Nc5ccc6nc(C)cc(N)c6c5)cc4)cc3)ccc2n1
B = Cc1cc(N)c2cc(NC(=O)c3ccccc3COc3ccc(CNCCCCCCCCCN)cc3)ccc2n1
input: Select the item whose pIC50 value is smaller, choosing between A and B . Answer by stating the label of the chosen item.
output: B

Where do these numbers come from? They come from ChEMBL document CHEMBL1759965.
